Assign pKd to each entry below.
Tested system: T1, LexAΔ24aa (Mycobacterium tuberculosis, UniProt P9WHR7 25-236, del1-24)
T1 sequence: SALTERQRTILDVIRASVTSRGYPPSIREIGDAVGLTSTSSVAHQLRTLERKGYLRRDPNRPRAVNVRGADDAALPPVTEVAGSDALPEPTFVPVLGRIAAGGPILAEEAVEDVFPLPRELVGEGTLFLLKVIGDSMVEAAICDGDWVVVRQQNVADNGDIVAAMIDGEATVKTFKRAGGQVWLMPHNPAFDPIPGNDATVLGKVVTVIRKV
Run description: BLI; pH 7.5; BLI: 10 mM HEPES pH 7.5, 50 mM NaCl, 25 C (pH 4 buffer not stated), 1:1 global fit; EMSA: 10 mM HEPES pH 7.5, 50 mM NaCl, 30 min on ice, 3.5 nM DNA
Condition summary: protein: recombinant; tags: N-term 6xHis (pET28a); chain copies: 2; label: 5' biotin on strand 1; blunt
Would you please state pKd, meaning minus log10 of the concentration in mol/L, as a bare number?

// query pKd value for entry rv3074_44mer SOS box, biotinylated (dsDNA) DNA 1: GCAGGCTGCTATTCTCGAACACATGTTCGAGACATTGACCGCGA DNA 2: TCGCGGTCAATGTCTCGAACATGTGTTCGAGAATAGCAGCCTGC
8.56

// query pKd value for entry dnaE2_44mer SOS box, biotinylated (dsDNA) DNA 1: ACAACTGCGCTGTATCGAACAATTGTTCGATATACTGTGGAATG DNA 2: CATTCCACAGTATATCGAACAATTGTTCGATACAGCGCAGTTGT
8.31

// query pKd value for entry recA_44mer SOS box, biotinylated (dsDNA) DNA 1: GTGTCACACTTGAATCGAACAGGTGTTCGGCTACTGTGGTGATC DNA 2: GATCACCACAGTAGCCGAACACCTGTTCGATTCAAGTGTGACAC
8.78

// query pKd value for entry lexA_44mer SOS box, biotinylated (dsDNA) DNA 1: CCGGAACACGCCTGTCGAACACATGTTTGATTCTTGGTGCGAAT DNA 2: ATTCGCACCAAGAATCAAACATGTGTTCGACAGGCGTGTTCCGG
8.63
